Target: human NaV 1.8 (Homo sapiens)
Sequence (Q9Y5Y9 126-1722 limits assumed): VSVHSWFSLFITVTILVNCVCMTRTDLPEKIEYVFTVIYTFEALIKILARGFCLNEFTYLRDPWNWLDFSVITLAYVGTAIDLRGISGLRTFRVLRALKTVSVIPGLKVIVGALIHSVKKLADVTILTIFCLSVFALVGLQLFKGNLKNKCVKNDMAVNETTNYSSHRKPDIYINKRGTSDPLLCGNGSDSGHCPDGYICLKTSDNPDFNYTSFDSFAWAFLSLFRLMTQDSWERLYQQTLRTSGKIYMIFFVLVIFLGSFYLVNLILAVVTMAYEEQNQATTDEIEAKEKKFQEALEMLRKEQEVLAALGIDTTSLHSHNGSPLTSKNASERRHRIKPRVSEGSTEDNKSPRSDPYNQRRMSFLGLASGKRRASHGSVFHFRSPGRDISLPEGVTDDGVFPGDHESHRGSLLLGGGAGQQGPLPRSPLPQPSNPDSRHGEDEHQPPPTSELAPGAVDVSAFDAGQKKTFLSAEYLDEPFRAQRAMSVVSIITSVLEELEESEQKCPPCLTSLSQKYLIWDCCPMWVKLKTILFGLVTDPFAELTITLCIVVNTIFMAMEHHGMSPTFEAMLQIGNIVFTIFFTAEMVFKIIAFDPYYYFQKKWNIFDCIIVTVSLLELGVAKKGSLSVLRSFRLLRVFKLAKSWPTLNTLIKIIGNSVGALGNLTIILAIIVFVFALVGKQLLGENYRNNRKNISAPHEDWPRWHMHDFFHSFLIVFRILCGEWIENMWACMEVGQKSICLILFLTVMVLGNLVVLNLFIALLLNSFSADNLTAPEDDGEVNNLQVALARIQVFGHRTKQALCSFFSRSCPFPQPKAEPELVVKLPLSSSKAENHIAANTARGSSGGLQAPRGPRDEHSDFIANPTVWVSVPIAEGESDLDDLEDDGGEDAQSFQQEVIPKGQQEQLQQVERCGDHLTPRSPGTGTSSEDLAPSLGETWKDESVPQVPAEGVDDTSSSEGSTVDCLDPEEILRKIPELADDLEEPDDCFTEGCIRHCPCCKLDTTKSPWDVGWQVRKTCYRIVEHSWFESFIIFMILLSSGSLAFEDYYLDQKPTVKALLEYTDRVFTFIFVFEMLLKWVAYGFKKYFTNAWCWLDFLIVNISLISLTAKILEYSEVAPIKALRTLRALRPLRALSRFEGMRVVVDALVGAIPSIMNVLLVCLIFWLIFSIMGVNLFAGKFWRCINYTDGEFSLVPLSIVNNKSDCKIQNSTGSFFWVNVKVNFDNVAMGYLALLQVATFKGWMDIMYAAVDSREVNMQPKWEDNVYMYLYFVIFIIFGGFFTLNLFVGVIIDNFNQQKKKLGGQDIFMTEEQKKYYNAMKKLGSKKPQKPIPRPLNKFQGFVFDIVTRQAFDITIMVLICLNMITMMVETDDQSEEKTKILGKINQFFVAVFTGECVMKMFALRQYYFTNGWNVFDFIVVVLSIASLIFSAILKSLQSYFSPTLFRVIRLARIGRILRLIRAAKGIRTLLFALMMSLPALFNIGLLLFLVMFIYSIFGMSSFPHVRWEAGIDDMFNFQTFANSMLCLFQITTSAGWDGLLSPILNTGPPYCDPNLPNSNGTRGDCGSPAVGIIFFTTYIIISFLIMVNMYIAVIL
Test: E-VIPR Assay Detecting and Measuring NaV Inhibition Properties
Details: HEK cells expressing a truncated form of human NaV 1.8 with full channel activity; electrical stimulation, membrane potential FRET dyes; read-out: measured IC50 value in the E-VIPR Assay
measurement name: IC50

The cases that follow already have their IC50 on record.
| compound | IC50 |
| --- | --- |
| C[C@H]1[C@@H](c2ccc(F)c(F)c2OCCN2C[C@H]3COC[C@H]3C2)[C@H](C(=O)Nc2cnc(CO)nc2)O[C@@]1(C)C(F)(F)F [Compound 26] | 100 to 1000 nM |
| C[C@H]1[C@@H](c2ccc(F)c(F)c2OCCO)[C@H](C(=O)Nc2ccc(CO)nc2)O[C@@]1(C)C(F)(F)F [Compound 23] | 10 to 100 nM |

For the next question, use this compound.
According to the records, this compound COc1c([C@H]2[C@H](C(=O)Nc3cnc4c(c3)OCC4O)O[C@@](C)(C(F)(F)F)[C@H]2C)ccc(F)c1F (single isomer, unassigned) [Compound 1] displays IC50 of 10 to 100 nM
